- MEASUREMENT_TARGET: Neurotensin receptor type 1 (Homo sapiens, UniProt P30989)
- Sequence (P30989 whole entry): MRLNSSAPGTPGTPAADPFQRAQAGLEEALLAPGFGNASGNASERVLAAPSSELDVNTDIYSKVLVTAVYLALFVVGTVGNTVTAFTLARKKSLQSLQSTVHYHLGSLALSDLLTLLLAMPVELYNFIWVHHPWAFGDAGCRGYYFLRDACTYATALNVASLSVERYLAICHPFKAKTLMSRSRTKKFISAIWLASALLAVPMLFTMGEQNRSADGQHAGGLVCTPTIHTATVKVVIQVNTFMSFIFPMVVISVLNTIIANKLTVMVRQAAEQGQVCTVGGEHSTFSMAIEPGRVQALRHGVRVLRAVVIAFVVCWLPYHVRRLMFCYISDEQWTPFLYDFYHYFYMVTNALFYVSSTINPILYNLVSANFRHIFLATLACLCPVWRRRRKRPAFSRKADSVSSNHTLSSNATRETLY
- EXPERIMENT_DESCRIPTION: Binding affinity towards neurotensin receptor in membranes prepared from HT-29 cell line, relative to [111In]-labeled neurotensin peptide
- PARTICULARS: ht-29
Where a SMILES comes first, the peptide text is derived from it. [ ]: non-standard residue; d: D form. The star is where a group is joined. Gly(1-amidinopiperidin-4-yl) = N=C(N)N1CCC([C@H](N)C(=O)O)CC1; FITC = O=C1OC2(c3ccc(O)cc3Oc3cc(O)ccc32)c2ccc(NC(=S)*)cc21; Gly(piperidin-4-yl) = N[C@H](C(=O)O)C1CCNCC1; Tle = CC(C)(C)[C@H](N)C(=O)O
Measured IC50, listed per entry.
OUTCOME_MEASURE: IC50 (nM)

COMPOUND	UNIT_STRING	NUMERIC_VALUE
CC[C@H](C)[C@H](NC(=O)[C@H](Cc1ccc(O)cc1)NC(=O)[C@@H]1CCCN1C(=O)[C@H](CCCN=C(N)N)NC(=O)[C@@H](NC(=O)[C@@H]1CCCN1C(=O)[C@H](N)CCCCNC(=S)Nc1ccc2c(c1)C(=O)OC21c2ccc(O)cc2Oc2cc(O)ccc21)C1CCN(C(=N)N)CC1)C(=O)N[C@@H](CC(C)C)C(=O)O	nM	0.6
CC(C)C[C@H](NC(=O)[C@@H](NC(=O)[C@H](Cc1ccc(O)cc1)NC(=O)[C@@H]1CCCN1C(=O)[C@H](CCCN=C(N)N)NC(=O)[C@@H](NC(=O)[C@@H]1CCCN1C(=O)[C@@H](NC(=S)Nc1ccc2c(c1)C(=O)OC21c2ccc(O)cc2Oc2cc(O)ccc21)C1CCNCC1)C1CCN(C(=N)N)CC1)C(C)(C)C)C(=O)O ({FITC}-[Gly(piperidin-4-yl)]P[Gly(1-amidinopiperidin-4-yl)]RPY[Tle]L-OH)	nM	0.5
CC[C@H](C)[C@H](NC(=O)[C@H](Cc1ccc(O)cc1)NC(=O)[C@@H]1CCCN1C(=O)[C@H](CCCN=C(N)N)NC(=O)[C@@H](NC(=O)[C@@H]1CCCN1C(=O)[C@@H](CCCCNC(=S)Nc1ccc2c(c1)C(=O)OC21c2ccc(O)cc2Oc2cc(O)ccc21)NC(=S)Nc1ccc2c(c1)C(=O)OC21c2ccc(O)cc2Oc2cc(O)ccc21)C1CCN(C(=N)N)CC1)C(=O)N[C@@H](CC(C)C)C(=O)O	nM	3.4
